System: human non small cell lung carcinoma (NCI-H460)
EXPERIMENTAL_PROTOCOL: Inhibition of tumour cell proliferation in vitro ([3H]thymidine incorporation), NCI-H460
Assay type: cell-based
CONDITION_DETAILS: NCI-H460, 24 hours, read-out: The median inhibition concentration (IC50, nM) of NCI-H460
The reader will find reported IC50 values listed item by item below.
All answers are understood in nM, so give the number only.

Task item: Hi! What's the reported IC50 for N#CN=C(NCC/C=C/C=C/c1ccccc1)Nc1ccncc1 on human non small cell lung carcinoma (NCI-H460)?
Reply: 49

Task item: How about N#CNC(=Nc1ccncc1)NCCCCC#Cc1ccccc1 ?
Reply: 78

Task item: Proceed to CCCCCCCCCCCCNC(=Nc1ccncc1)NC#N
Reply: 61

Task item: What about this compound? N#CN=C(NCCCC/C=C\c1ccccc1)Nc1ccncc1
Reply: 135

Task item: Next up: N#CNC(=Nc1ccncc1)NCCCCCCCCCc1ccccc1
Reply: 5.8

Source: patent US6197797A
